assay-system: TYK2-JH2 domain (Homo sapiens, UniProt P29597)
Construct: JAK1-JH2 domain or TYK2-JH2 domain enzyme in assay buffer
Sequence (P29597 589-875 limits assumed): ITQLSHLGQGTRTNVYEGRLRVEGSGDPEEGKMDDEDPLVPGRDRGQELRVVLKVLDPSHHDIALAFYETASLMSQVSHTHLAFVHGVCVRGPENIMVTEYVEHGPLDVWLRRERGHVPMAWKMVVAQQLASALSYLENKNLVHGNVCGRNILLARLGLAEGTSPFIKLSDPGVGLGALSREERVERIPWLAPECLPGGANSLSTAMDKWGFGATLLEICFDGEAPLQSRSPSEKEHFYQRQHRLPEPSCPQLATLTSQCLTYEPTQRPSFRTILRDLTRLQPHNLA
run-description: Binding activity test for JH2 domain of TYK2 (Tb-antibody/tracer FRET)
condition-notes: read-out: TYK2 JH2 Binding IC50; JH2 domain enzyme; 60 min at 25°C, then 4°C overnight
Procedure: Binding Activity test for JH2 domain of JAK1 and TYK2 […] Add 8μL/well in echo source plate, echo will add 75nL/well with 3-fold serial dilution for 11 points in assay plate. 75nL DMSO for high control and low control. […] For low control, add 5μL/well assay buffer. And then spin down at 1000rpm and centrifuge for 30 seconds. […] Read by envision in FRET mode. The Luminescence value was recorded by a multi-label reader Envision (PerkinElmer). […]
Consider the following compounds and their measured pIC50 readings.
Notebook: values listed as pIC50 are -log10 of the concentration (mol/L).

{"compound": "[2H]C([2H])([2H])O[C@@H](c1ccc2c(c(Nc3cc(NC(=O)C4CC4)ncc3C(=O)NC)nn2C)c1OC)C(F)(F)F", "observable": "pIC50", "observed": 10.28}

Req: Please look at this compound and report its pIC50: COC(=O)c1c(Nc2nn(C)c3ccc(C(OC)C(F)(F)F)c(OC)c23)cc(NC(=O)C2CC2)nc1N (stereo not drawn)
Resp: 7.03

Req: Determine its reported pIC50: COC(=O)c1cnc(NC(=O)[C@@H]2C[C@@H]2F)cc1Nc1nn(C)c2ccc(C(O)C(F)(F)F)c(OC)c12 (single isomer, unassigned) [Example 122A]
Resp: 10.14

Req: Quote pIC50 reported for [2H]C([2H])([2H])NC(=O)c1cnc(NC(=O)[C@@H]2C[C@@H]2F)cc1Nc1cnn2cnc(C(O)C(F)(F)F)c(OC)c12 (stereo partly drawn) please.
Resp: 9.25

Req: Read the entry COC(=O)c1cnc(NC(=O)[C@@H]2C[C@@H]2F)cc1Nc1nn(C)c2ccc(C(O)C(F)(F)F)c(OC)c12 (single isomer, unassigned) [Example 122B] and write its reported pIC50.
Resp: 9.13

Req: Give pIC50 for the following compound: `[2H]C([2H])([2H])OC(=O)c1cnc(NC(=O)C2CC2)cc1Nc1ncc2ccn(C([2H])([2H])C([2H])([2H])[2H])c2c1OC([2H])([2H])[2H]`
Resp: 8.87
